System: 521955-158-R6-J3-PDC complex spheroid growth, % test/control
Assay: Anticancer human tumor 521955-158-R6-J3-PDC patient-derived pancreatic carcinoma cell line growth inhibition [Asc]
Conditions: second compound 1 µM; first compound 0.001 µM; active compounds read low
Excerpt: Multicellular complex tumor spheroid response to apoptosis pathway targeting inhibitors Alrizomadlin, Pelcitoclax, and Dasminapant in combination with a variety of drugs and investigational agents in selected tumor cell lines […] Compounds. […] If the clinical Cmax for an agent had not been determined, the highest concentration tested was 10 microM. […]
Please go through the items and note down their viability, T/C.
One number for each entry, in %.

compound	tested on	experimental value
Cn1ncnc1[C@H]1c2n[nH]c(=O)c3cc(F)cc(c23)N[C@@H]1c1ccc(F)cc1 + Cc1c(S(C)(=O)=O)c(-c2cc(F)cc(N3CCN(c4ccc(NS(=O)(=O)c5ccc(NC(CCN6CCC(C(=O)OCCCP(=O)(O)O)CC6)CSc6ccccc6)c(S(=O)(=O)C(F)(F)F)c5)cc4)CC3)c2)c(-c2ccc(Cl)cc2)n1C(C)C	521955-158-R6-J3-PDC complex spheroid growth, % test/control	32.7
NC1CCC(NC2CC2c2ccccc2)CC1 (centres undefined) + CNC(C)C(=O)NC1CN(S(=O)(=O)c2cccc(S(=O)(=O)N3CCC4CCC(C(=O)NC(c5ccccc5)c5ccccc5)N4C(=O)C(NC(=O)C(C)NC)C3)c2)CCC2CCC(C(=O)NC(c3ccccc3)c3ccccc3)N2C1=O	521955-158-R6-J3-PDC complex spheroid growth, % test/control	77.8
NC1CCC(NC2CC2c2ccccc2)CC1 (centres undefined) + Cc1c(S(C)(=O)=O)c(-c2cc(F)cc(N3CCN(c4ccc(NS(=O)(=O)c5ccc(NC(CCN6CCC(C(=O)OCCCP(=O)(O)O)CC6)CSc6ccccc6)c(S(=O)(=O)C(F)(F)F)c5)cc4)CC3)c2)c(-c2ccc(Cl)cc2)n1C(C)C	521955-158-R6-J3-PDC complex spheroid growth, % test/control	36.1

Shift focus to the following entry.
Entry Cn1ncnc1[C@H]1c2n[nH]c(=O)c3cc(F)cc(c23)N[C@@H]1c1ccc(F)cc1 + CNC(C)C(=O)NC1CN(S(=O)(=O)c2cccc(S(=O)(=O)N3CCC4CCC(C(=O)NC(c5ccccc5)c5ccccc5)N4C(=O)C(NC(=O)C(C)NC)C3)c2)CCC2CCC(C(=O)NC(c3ccccc3)c3ccccc3)N2C1=O : viability, T/C on 521955-158-R6-J3-PDC complex spheroid growth, % test/control = 74.9

----------
tested on: 521955-158-R6-J3-PDC complex spheroid growth, % test/control; experiment: Anticancer human tumor 521955-158-R6-J3-PDC cell line growth inhibition [Asc]; settings: second compound 0.01 µM; first compound 0.00316 µM; active compounds read low;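 note: spheroids exposed to compounds for 7 days; 100% = DMSO vehicle control wells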
recorded metric: viability, T/C (%)
One number for each entry, in %.

Consider the following illustrative entries.
molecule	result unit	experimental value
CCN1CCN(Cc2ccc(Nc3ncc(F)c(-c4cc(F)c5nc(C)n(C(C)C)c5c4)n3)nc2)CC1 + CNC(C)C(=O)NC1CN(S(=O)(=O)c2cccc(S(=O)(=O)N3CCC4CCC(C(=O)NC(c5ccccc5)c5ccccc5)N4C(=O)C(NC(=O)C(C)NC)C3)c2)CCC2CCC(C(=O)NC(c3ccccc3)c3ccccc3)N2C1=O	%	94.2
Cn1ncnc1[C@H]1c2n[nH]c(=O)c3cc(F)cc(c23)N[C@@H]1c1ccc(F)cc1 + CNC(C)C(=O)NC1CN(S(=O)(=O)c2cccc(S(=O)(=O)N3CCC4CCC(C(=O)NC(c5ccccc5)c5ccccc5)N4C(=O)C(NC(=O)C(C)NC)C3)c2)CCC2CCC(C(=O)NC(c3ccccc3)c3ccccc3)N2C1=O	%	142
O=C(c1ccc(F)c(F)c1Nc1ccc(I)cc1F)N1CC(O)([C@@H]2CCCCN2)C1 + CNC(C)C(=O)NC1CN(S(=O)(=O)c2cccc(S(=O)(=O)N3CCC4CCC(C(=O)NC(c5ccccc5)c5ccccc5)N4C(=O)C(NC(=O)C(C)NC)C3)c2)CCC2CCC(C(=O)NC(c3ccccc3)c3ccccc3)N2C1=O	%	87.4
NC1CCC(NC2CC2c2ccccc2)CC1 (stereo not given) + CNC(C)C(=O)NC1CN(S(=O)(=O)c2cccc(S(=O)(=O)N3CCC4CCC(C(=O)NC(c5ccccc5)c5ccccc5)N4C(=O)C(NC(=O)C(C)NC)C3)c2)CCC2CCC(C(=O)NC(c3ccccc3)c3ccccc3)N2C1=O	%	77.6

Entry COc1c(OCCCN2CCOCC2)ccc2c3n(c(=NC(=O)c4cnc(N)nc4)nc12)CCN3 + CNC(C)C(=O)NC1CN(S(=O)(=O)c2cccc(S(=O)(=O)N3CCC4CCC(C(=O)NC(c5ccccc5)c5ccccc5)N4C(=O)C(NC(=O)C(C)NC)C3)c2)CCC2CCC(C(=O)NC(c3ccccc3)c3ccccc3)N2C1=O : viability, T/C on 521955-158-R6-J3-PDC complex spheroid growth, % test/control = 83.7
